src = patent US6355799B1

Tested on: large crabgrass (Digitaria sanguinalis, DIGSA)
Experiment: Pre-emerge test, greenhouse herbicide activity screening
Format: in vivo
Conditions: pre-emerge, rate 63 g ai/ha, phytotoxicity rating 0-100 at 14 days after application
Protocol: A standard greenhouse herbicide activity screening system was used to evaluate the herbicidal efficacy and crop safety of these test compounds. […] At 14 days after application of the test materials, phytotoxicity ratings were recorded. […]
Known Pre-emerge Herbicidal Activity DIGSA of a selection of compounds

Solved cases (4 shown):
COc1ccccc1COC(=O)Nc1c(C)c(Cl)cc(F)c1-n1c(=O)cc(C(F)(F)F)n(C)c1=O [4-58] | 30
O=C(Nc1cc(Cl)ccc1-n1c(=O)n2n(c1=S)CCCC2)c1ccc2ccccc2c1 [9-14] | 0
CC(C)Oc1c(Cl)cc(F)c(N2C(=O)C3=C(CCCC3)C2=O)c1NC(=O)c1ccc(F)cc1F [8-18] | 10
CC(C)Oc1c(Cl)cc(Cl)c(-n2nnn(CCCF)c2=O)c1N [Compound 5-16] | 0

Now let's try a different one.
Exam item: // lookup Pre-emerge Herbicidal Activity DIGSA | system=large crabgrass (Digitaria sanguinalis, DIGSA) | key= COc1ccc(COC(=O)Nc2c(C)c(Cl)cc(F)c2-n2c(=O)cc(C(F)(F)F)n(C)c2=O)cc1OC [4-63]
Marked response: 70

---

System: ivyleaf morningglory (Ipomoea hederacea, IPOHE)
Experiment: Post-emerge test, greenhouse herbicide activity screening
Format: in vivo
Conditions: 250 g ai/ha; post-emerge; 14 days after application; rating scale 0-100
quantity: Post-emerge Herbicidal Activity IPOHE (phytotoxicity rating)
Answer as a number with no unit attached.

COc1c(Cl)cc(F)c(-n2c(=O)cc(C(F)(F)F)n(C)c2=O)c1SC | 80
COCC(C)=NNc1c(OC)c(Cl)cc(F)c1-n1c(=O)cc(C(F)(F)F)n(C)c1=O | 100
CCOC(=O)C(Cl)Cc1c(OC)c(Cl)cc(F)c1-c1nn(C)c(C(F)(F)F)c1Cl (stereo not drawn) | 100
COc1c(Cl)cc(F)c(-n2c(=O)cc(C(F)(F)F)n(C)c2=O)c1NNC(=O)Nc1ccc(F)cc1F | 90
COc1c(Cl)cc(F)c(-n2c(=O)cc(C(F)(F)F)n(C)c2=O)c1NN=C(C(F)(F)F)C(F)(F)F | 100
COc1c(Cl)cc(F)c(-n2c(=O)cc(C(F)(F)F)n(C)c2=O)c1NNC(=O)c1ccccc1 | 100
COc1c(Cl)cc(F)c(-n2c(=O)cc(C(F)(F)F)n(C)c2=O)c1Sc1ccc2ccccc2c1 | 80
COc1c(Cl)cc(F)c(-n2c(=O)cc(C(F)(F)F)n(C)c2=O)c1NNC(=O)c1ccc(F)cc1F | 100

Exam item: Reported Post-emerge Herbicidal Activity IPOHE (phytotoxicity rating), molecule COc1c(Cl)cc(F)c(-n2c(=O)cc(C(F)(F)F)n(C)c2=O)c1NN=CCc1ccccc1 : ____
Marked response: 100

Exam item: Reported Post-emerge Herbicidal Activity IPOHE (phytotoxicity rating), molecule COc1c(Cl)cc(F)c(-n2c(=O)cc(C(F)(F)F)n(C)c2=O)c1NN=CC1CC1 : ____
Marked response: 100

Exam item: Reported Post-emerge Herbicidal Activity IPOHE (phytotoxicity rating), molecule COc1c(Cl)cc(F)c(-n2c(=O)cc(C(F)(F)F)n(C)c2=O)c1NN : ____
Marked response: 100

Exam item: Reported Post-emerge Herbicidal Activity IPOHE (phytotoxicity rating), molecule Cn1c(C(F)(F)F)cc(=O)n(-c2ccc(Cl)cc2/C=C/c2ccc3ccccc3c2)c1=O : ____
Marked response: 30
